- target: PTP4A1 peptide/HLA-A*02:01 complex (recombinant) (human)
- test description: SPR
property label: binding result

binder="AS170036 VL1VH1-VHS57Q (scFv) scFv: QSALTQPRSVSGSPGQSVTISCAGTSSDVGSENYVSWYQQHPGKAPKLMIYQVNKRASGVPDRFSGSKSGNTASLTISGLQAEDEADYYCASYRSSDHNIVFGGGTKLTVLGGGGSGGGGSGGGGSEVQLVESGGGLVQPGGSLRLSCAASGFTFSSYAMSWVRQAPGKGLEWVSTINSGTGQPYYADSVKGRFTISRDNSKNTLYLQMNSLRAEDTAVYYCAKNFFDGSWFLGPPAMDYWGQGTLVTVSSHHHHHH" property_label="binding result" recorded_value="no binding"
binder="AS170036 VL1VH1-VLH98A (scFv) scFv: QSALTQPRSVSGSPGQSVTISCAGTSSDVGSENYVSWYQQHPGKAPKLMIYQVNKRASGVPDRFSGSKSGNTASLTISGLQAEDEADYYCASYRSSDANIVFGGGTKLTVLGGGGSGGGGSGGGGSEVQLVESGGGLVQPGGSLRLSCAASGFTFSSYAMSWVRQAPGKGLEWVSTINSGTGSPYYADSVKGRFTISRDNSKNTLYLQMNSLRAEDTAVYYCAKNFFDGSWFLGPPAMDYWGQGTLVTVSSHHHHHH" property_label="binding result" recorded_value="no binding"
